- assay-overview: qHTS assay to identify small molecule antagonists of the estrogen receptor alpha (ER-alpha) signaling pathway - cell viability counter screen (AID 743074);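 further: HEK293 cells carrying ER-alpha-UAS-bla reporter stimulated with 17beta-estradiol; nearly all actives have a fitted effect of over 45% in size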
- condition-info: ERalpha-bla HEK293 viability, CellTiter-Glo luminescence, 18 h; series mostly up to 69.4 µM
Results filed as inconclusive are left out. Active and inactive are the calls of the source. The call rests on the fitted dose curve.
Just give me one of these, please: y (active), n (inactive)

{"molecule": "CCC1COC(Cn2cncn2)(c2ccc(Cl)cc2Cl)O1 (stereo not drawn)", "category": "n"}
{"molecule": "CCCCn1cc[n+](C)c1.[Cl][Fe-]([Cl])([Cl])[Cl]", "category": "n"}
{"molecule": "COc1c2c(cc3c1OCO3)CCN(C)C2", "category": "n"}
{"molecule": "CC(C)C(Nc1ccc(C(F)(F)F)cc1Cl)C(=O)OC(C#N)c1cccc(Oc2ccccc2)c1 (stereo not drawn)", "category": "n"}
{"molecule": "CC(C)NCC(O)c1ccccc1Cl (stereo not drawn)", "category": "n"}
{"molecule": "C=Cc1cccc(CCl)c1", "category": "n"}
{"molecule": "CCn1cc[n+](C)c1 (tested in a mixture with another compound)", "category": "n"}
{"molecule": "c1ccc(N=NNc2ccccc2)cc1", "category": "n"}

[ask] // return assay outcome for Clc1cc(Cl)c(-c2cc(Cl)c(Cl)cc2Cl)cc1Cl
[reply] n

[ask] Answer briefly: the call reported for O=[N+]([O-])c1ccccc1-c1ccccc1 in this assay.
[reply] n

[ask] How did this test come out for S=C=NCCc1ccccc1 ?
[reply] n

[ask] Name the outcome recorded for CCC(C)Nc1c([N+](=O)[O-])cc(C(C)(C)C)cc1[N+](=O)[O-] (stereo not drawn) in the assay.
[reply] n

[ask] Record lookup: outcome of this test for [Cl][Hg][c]1ccccc1 ?
[reply] y

* * *

- target-entity: Progesterone receptor (Homo sapiens)
- assay-overview: qHTS assay to identify small molecule agonists of the progesterone receptor (PR) signaling pathway (AID 1346784); further: nearly all actives have a fitted effect of over 30% in size
- condition-info: PR-UAS-bla HEK293T, beta-lactamase FRET ratio, 16 h; series mostly up to 92.4 µM
Records with an inconclusive call do not appear. Calls of active or inactive are those of the source. Calls follow the shape of the full dose curve.
Answer with one of the outcomes yes (active), no (inactive)

// known answers, use as guide
{"compound": "[O-][Cl+3]([O-])([O-])O", "category": "no"}
{"compound": "CCCCC(CC)COC(=O)c1ccccc1C(=O)OCC(CC)CCCC (stereo not drawn)", "category": "yes"}

[ask] Per the assay record, what outcome was assigned to Nc1nc(N)nc(Cl)n1 ?
[reply] no

[ask] Test call, this compound: CCCCC/C=C\C/C=C\C/C=C\C/C=C\CCCC(=O)NCC(=O)O
[reply] no

* * *

- assay-overview: qHTS RealTime-Glo MT Cell Viability Assay in HEK293 cells - 16 hour (AID 1224872); further: nearly all actives have a fitted effect of over 50% in size
- condition-info: RealTime-Glo luminescence; series mostly up to 76.8 µM
Inconclusive results are not listed. Calls of active or inactive are those of the source. Calls come from the whole dose curve; as a rule, active = well fitted cell-killing curve with a large enough effect in the repeat runs; inconclusive = weak or mixed curves, or effect the other way; inactive = flat fitted curve, though single readings scatter.
Would you mind answering with one of these outcomes? Y (active), N (inactive)

{"compound": "O=P(Cl)(Cl)Cl", "category": "N"}
{"compound": "CC(C)C(Br)C(=O)NC(N)=O (stereo not drawn)", "category": "N"}
{"compound": "FC(F)C(F)(F)OCC(Cn1cncn1)c1ccc(Cl)cc1Cl (stereo not drawn)", "category": "Y"}
{"compound": "CCC1(CC)C(=O)N=C(O)NC1=O", "category": "N"}
{"compound": "NC(=O)C(Cl)Cl", "category": "N"}

[ask] How was CCC(C)c1cccc(C(C)CC)c1O (stereo not drawn) classified in this test?
[reply] N

[ask] I'd appreciate the recorded outcome for CNC(=O)O/N=C(\C)C(C)S(C)(=O)=O (stereo not drawn) from this test.
[reply] N

[ask] Please let me know the test result on file for [Cl][Hg][c]1ccccc1 .
[reply] Y
